Can you tell me GFP response vs DMSO for the items I'm about to list?
Assay: TOR pathway LAP4-GFP level changes – S. cerevisiae, multiplex flow cytometry, primary screen (AID 1873)
Conditions: S. cerevisiae LAP4-GFP expression, 3 h, at 10 µM, stronger effect = higher value
Results filed as inconclusive are left out.
Respond numerically; units are % and should not be typed.

Memo: O=Cc1ccccc1Oc1ccccc1 , reported GFP response vs DMSO: 86.4

compound Nc1c(C(=O)c2ccccc2)oc2ccccc12 , GFP response vs DMSO observed: 93.3

Item: O=C(NC(=S)Nc1ccc(N2CCN(C(=O)c3ccccc3)CC2)cc1)c1cccs1 | GFP response vs DMSO: 77

Lab book: GFP response vs DMSO of O=C(O)CCCNc1ccc(S(=O)(=O)Nc2ccccc2C(=O)O)cc1C(=O)O noted as 83.5

Entry under test: O=C(/C=C/c1c[nH]c2ccccc12)c1cccc2ccccc12 . Its GFP response vs DMSO was 132

// Cc1ccnc(NS(=O)(=O)c2ccc(N)cc2)n1 : GFP response vs DMSO value = 102

Kindly note the recorded GFP response vs DMSO for OCCN(CCO)c1nc(N2CCCCC2)c2nc(N(CCO)CCO)nc(N3CCCCC3)c2n1 , which is 107

// recorded GFP response vs DMSO for O=C(CN1C(=O)C2CCc3[nH]c4ccccc4c3C2C1=O)N1CCCC1 (stereo unspecified) : 78.1

Please fill in: GFP response vs DMSO reported for COc1cccc(-n2c(C)c3c(OC)cccc(=O)c3c2C)c1 = 85.8

Measured GFP response vs DMSO, N#C/C(=C\c1ccc(O)c(O)c1)C(=O)NCCCc1ccccc1 : 108

Note to self: GFP response vs DMSO recorded for CC(=O)CCc1c(C)c2cccc(C)c2[nH]c1=O was 97.4

###

Molecular target: Cell division control protein 42 homolog (Homo sapiens) (UniProt P60953)
Sequence (P60953 whole entry, looked up): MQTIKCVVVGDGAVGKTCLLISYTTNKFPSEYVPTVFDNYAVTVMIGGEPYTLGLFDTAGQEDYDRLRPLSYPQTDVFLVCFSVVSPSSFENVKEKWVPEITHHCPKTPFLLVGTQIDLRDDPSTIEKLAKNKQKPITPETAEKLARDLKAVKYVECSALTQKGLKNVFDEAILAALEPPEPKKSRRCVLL
Assay: inhibition of fluorescent GTP binding to wildtype Cdc42 – biochemical, multiplex bead flow cytometry, Bodipy-FL-GTP, dose response (AID 1334)
Conditions: bead-based flow cytometry, Bodipy-FL-GTP binding to GST-Cdc42; at 100 µM (top of the series) unless noted
Results with a measured potency or affinity are listed apart.
Readout Kind: fluorescence, percent of control (lower = inhibition)
Entry format: amount then unit.

The molecule identified as COC(=O)c1cc(NC(=O)c2cccc(Cl)c2)c(=O)oc1/C=C/Nc1cc(C)cc(C)c1 registered its fluorescence, percent of control (lower = inhibition) at 193%

Reported fluorescence, percent of control (lower = inhibition) for COc1ccc2c(C(=O)O)cn(CCOc3ccccc3C)c2c1 was 64.6%

Briefly, fluorescence, percent of control (lower = inhibition) measured for COc1cc(C(=S)NC2CCCCC2)ccc1O : 46.9%

For this molecule ( CCOc1ccc(-n2nc3c(SCCN4CCCC4)nnc(C)c3c2C)cc1 ), measured fluorescence, percent of control (lower = inhibition) is 57.3%

Form: molecule = COc1ccc(Nc2ccccc2C(=O)O)cc1 ; fluorescence, percent of control (lower = inhibition) = 45.2%

The recorded fluorescence, percent of control (lower = inhibition) for CCn1c2ccccc2c2nc3cc(C(=O)O)ccc3nc21 is 34%

Looking up CC(=O)c1c(C)[nH]c(C(=O)N2CCc3ccccc3C2)c1C , I found its fluorescence, percent of control (lower = inhibition) recorded as 107%

molecule CNC(=O)COC(=O)c1cc(NC(=O)c2ccco2)c(OC)c(OC)c1 , fluorescence, percent of control (lower = inhibition) observed: 39.3%

Query CCOc1ccc(-n2c(SCC(=O)NC(C)CC)nc3n[nH]c(C)c3c2=N)cc1 (stereo not drawn) yields fluorescence, percent of control (lower = inhibition) of 38.4%

// field: fluorescence, percent of control (lower = inhibition); key: Cn1c(=O)n(Cc2ccc(F)cc2)c(=O)c2c1nc1n2CCN1Cc1ccco1 ; value = 31.2%

The recorded fluorescence, percent of control (lower = inhibition) for O=C(NCc1ccc(F)cc1)C(c1ccccc1)N(CC1CCCO1)C(=O)Cn1nnc2ccccc21 (stereo not drawn) is 53.6%

Documented fluorescence, percent of control (lower = inhibition) of O=C1C2CC=CCC2C(=O)N1c1ncn[nH]1 (stereo not drawn) : 97.2%

In plain terms, COc1cc(/C=C/C(=O)Nc2ccc3nc4n(c(=O)c3c2)CCCC4)cc(OC)c1OC has a documented fluorescence, percent of control (lower = inhibition) of 32.7%

Lab note: Cn1c(/C(C#N)=C/c2ccncc2)nc2ccccc21 gave fluorescence, percent of control (lower = inhibition) of 36.7%

Note to self: fluorescence, percent of control (lower = inhibition) recorded for COc1cc(/C=N\NC(=O)c2sc(N)nc2C)cc(OC)c1OC was 39.4%

// sample N#C/C(=C\c1ccc(-c2ccc(C(=O)O)cc2)o1)c1nc2ccccc2[nH]1 , its fluorescence, percent of control (lower = inhibition) was 168%

Noted for Cc1ccc(N2C(=O)c3ccccc3C2Nc2cccnc2)nc1 (stereo not drawn) : its fluorescence, percent of control (lower = inhibition) reads 37%

Per the record, Cc1cccc(CCSc2ncccc2C(=O)O)c1 has fluorescence, percent of control (lower = inhibition) of 119%

The recorded fluorescence, percent of control (lower = inhibition) for entry COc1ccc(N(CC(=O)Nc2cccc(C)c2C)S(=O)(=O)c2c(C)n[nH]c2C)cc1 equals 33.4%

Input CCOC(=O)c1cc2c(N)c(C(=O)c3ccc(Br)cc3)sc2[nH]c1=O . Output fluorescence, percent of control (lower = inhibition): 29%

Short answer for Cc1cc(C)cc(C(=O)N(NC(=O)Nc2ccc(Cl)cc2)C(C)(C)C)c1 : fluorescence, percent of control (lower = inhibition) was 94.9%

// COc1ccccc1OCCn1cc(C(=O)O)c2cccc(Cl)c21 : fluorescence, percent of control (lower = inhibition) value = 53.4%

molecule COc1ccc(-c2csc(C3=C(O)CN(C(C)C)C3=N)n2)cc1OC , fluorescence, percent of control (lower = inhibition) observed: 31.9%

###

Exercise: state measured inhibition for each of the compounds provided.
Molecular target: ATP-binding cassette sub-family B member 6 (Homo sapiens) (UniProt Q9NP58)
Sequence (Q9NP58 whole entry, looked up): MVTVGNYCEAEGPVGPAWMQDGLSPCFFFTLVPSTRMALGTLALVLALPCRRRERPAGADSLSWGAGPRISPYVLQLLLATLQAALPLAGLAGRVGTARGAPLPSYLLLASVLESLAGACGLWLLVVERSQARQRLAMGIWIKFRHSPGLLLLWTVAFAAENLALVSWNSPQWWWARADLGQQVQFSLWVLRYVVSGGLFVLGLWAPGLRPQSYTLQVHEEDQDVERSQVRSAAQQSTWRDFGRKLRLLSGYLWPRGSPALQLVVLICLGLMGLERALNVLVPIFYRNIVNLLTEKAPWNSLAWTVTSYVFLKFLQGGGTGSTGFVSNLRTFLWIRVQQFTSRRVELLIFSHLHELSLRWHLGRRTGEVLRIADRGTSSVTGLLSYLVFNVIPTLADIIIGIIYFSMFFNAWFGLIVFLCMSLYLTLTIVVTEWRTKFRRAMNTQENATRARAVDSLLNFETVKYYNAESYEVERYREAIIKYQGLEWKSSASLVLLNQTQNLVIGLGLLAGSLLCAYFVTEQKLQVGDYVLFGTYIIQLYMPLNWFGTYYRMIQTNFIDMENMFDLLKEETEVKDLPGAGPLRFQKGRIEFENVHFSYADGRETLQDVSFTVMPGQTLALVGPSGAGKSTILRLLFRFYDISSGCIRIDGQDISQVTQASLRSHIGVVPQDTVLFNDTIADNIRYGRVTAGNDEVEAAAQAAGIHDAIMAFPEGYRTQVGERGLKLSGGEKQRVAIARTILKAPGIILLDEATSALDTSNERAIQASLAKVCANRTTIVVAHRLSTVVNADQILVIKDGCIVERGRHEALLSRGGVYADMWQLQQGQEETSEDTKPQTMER
Experiment: blockers of ABCB6-driven porphyrin uptake – K562-ABCB6 cells, flow cytometry, validation set, pilot screen (AID 588550);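 further: 0% = DMSO wells and 100% = benzethonium chloride 70 µM positive control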
Details: K562-ABCB6 porphyrin accumulation, 1 h, at 10 µM, stronger effect = higher value
Numeric only. Scale: %

Form: item O=C(O)/C=C/c1cccc(OCc2ccccc2)c1 ; test system ATP-binding cassette sub-family B member 6 (Homo sapiens) (UniProt Q9NP58); inhibition: 8

Lab entry: ATP-binding cassette sub-family B member 6 (Homo sapiens) (UniProt Q9NP58) assay, compound Nc1ccc2cn[nH]c2c1 , inhibition = 32

So the reported inhibition for Fc1ccc(-n2cc(CNCCc3ccccn3)c(-c3ccccc3Cl)n2)cc1 , on ATP-binding cassette sub-family B member 6 (Homo sapiens) (UniProt Q9NP58), turned out to be -2

###

Assay: TOR pathway RTG branch CIT2 reporter changes – S. cerevisiae, GFP fusion, multiplex flow cytometry, primary screen (AID 1870);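 further: barcoded CIT2-GFP strain pooled with four other GFP strains with rapamycin as positive control; median GFP fluorescence per well over plate mean of DMSO wells so 100% = DMSO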
Details: S. cerevisiae CIT2-GFP expression, 3 h, at 10 µM, stronger effect = higher value
Readout Kind: percent response of DMSO control (%)
Numeric only. Scale: %

The compound identified as CC(=O)O[C@H]1C[C@@]2(C)[C@@H](C[C@@H](O)[C@H]3[C@@]4(C)CC[C@@H](O)[C@@H](C)C4CC[C@@]32C)/C1=C(\CCC=C(C)C)C(=O)O (stereo not given in full) registered its percent response of DMSO control at 104

Value of measured percent response of DMSO control for the entry CCC(C)n1ncn(-c2ccc(N3CCN(c4ccc(OCC5COC(Cn6cncn6)(c6ccc(Cl)cc6Cl)O5)cc4)CC3)cc2)c1=O (stereo not given) : 97.1

# percent response of DMSO control (compound: CCOCCn1c(C(C)O)nc2ccccc21 (stereo not given) ) is 111

response.value for Cc1ccc(C2=NOC(=O)/C2=C\C=C\c2ccccc2)cc1 (field: percent response of DMSO control) = 108

// Cc1ccc(/C(=C\CN2CCCC2)c2ccccn2)cc1 : percent response of DMSO control value = 108

###

Test: Nile Red efflux blockade in pump-expressing yeast – validation compound set, multiplex, phenotypic, pilot screen (AID 588506);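 further: Nile Red retained in cells so higher fluorescence means more efflux inhibition; 0 = negative control wells and 1 = enniatin B 25 µM full block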
Details: S. cerevisiae pump-expressing triplex, Nile Red efflux flow cytometry; at 10 µM; stronger effect = higher value; the pumps come from Candida albicans
Class assignment keyed on efflux inhibition (fraction of control), ranges low class (below -0.06), middle class (-0.06 to below 0.04), high class (0.04 or more)

Exercise: read the entry CC12CCC(C(=O)NCc3ccc4c(c3)OCO4)(CC1=O)C2(C)C (stereo not drawn) and state which class it falls under. high class

Place this compound in its band: Fc1ccc(C(c2ccc(F)cc2)N2CCN(C/C=C/c3ccccc3)CC2)cc1 middle class

Which efflux inhibition (fraction of control) category applies to Cc1ccc(CSCC(=O)N2CCCC2)cc1 here? middle class

Classify this compound: CCn1c(/C=C/c2ccccc2)nc2ccccc2c1=O high class

Please indicate the class for Cc1cc(C)c(NC(=O)NC(=O)C(Cl)(Cl)Cl)c(C)c1 based on its efflux inhibition (fraction of control). middle class

Each compound maps to one class by efflux inhibition (fraction of control). Which class for N#Cc1cc2c([nH]c1=O)CCCC2 ? middle class

Returns: class label. Input: CN1C2CCC1CC(OC(c1ccccc1)c1ccccc1)C2 (stereo not drawn) low class

Could you tell me which band NS(=O)(=O)c1cc2c(cc1C(F)(F)F)NC(Cc1ccccc1)NS2(=O)=O (stereo not drawn) belongs to? high class

Classify this compound: COc1ccc(NC(=O)C2OC3OC(C)(C)OC3C3OC(C)(C)OC23)cc1 (stereo not drawn) middle class

Kindly state the category for this compound: C[C@@H]1C[C@H]2[C@@H]3C[C@H](F)C4=CC(=O)C=C[C@]4(C)[C@@]3(F)[C@@H](O)C[C@]2(C)[C@@]1(O)C(=O)COC(=O)C(C)(C)C high class

Form: Item = CCCCOC(=O)c1ccc(N)cc1 ; Class = ? middle class

Category of CC(=O)Nc1ccc(CN2CCN(C3CCCCC3)C(CCO)C2)cc1 (stereo not drawn) : high class

Which category fits this record: Cc1ccccc1C(=O)NNc1ncnc2c1cnn2C high class

Which efflux inhibition (fraction of control) category applies to C[N+](C)(C)CCOP(=O)([O-])OC[C@H](O)CO here? high class

Using the reported efflux inhibition (fraction of control), which band applies to CC(C)C12CN3CC(C(C)C)(CN(C1)C3c1ccccc1)C2O (stereo not drawn) ? low class

Which band does CC(C)CCn1c(N2CCc3ccccc3C2)nc2c1c(=O)[nH]c(=O)n2C fall in? low class

Tag the class for Cc1nnc(NS(=O)(=O)c2ccc(N)cc2)s1 low class

// return the class label for NS(=O)(=O)c1cc(C2(O)NC(=O)c3ccccc32)ccc1Cl (stereo not drawn) low class

Band for the recorded efflux inhibition (fraction of control) of Cc1cc(O)c(C(C)C)cc1C1(c2cc(C(C)C)c(O)cc2C)OC(=O)c2ccccc21 ? low class

Into which bin does this compound go? NNC(=O)c1ccncc1 low class

These measurements were taken from PubChem BioAssay.
